Here the recorded pIC50 is given for each entry.
- measurement-target: BTK (h) (Homo sapiens, UniProt Q06187)
- Sequence (Q06187 whole entry): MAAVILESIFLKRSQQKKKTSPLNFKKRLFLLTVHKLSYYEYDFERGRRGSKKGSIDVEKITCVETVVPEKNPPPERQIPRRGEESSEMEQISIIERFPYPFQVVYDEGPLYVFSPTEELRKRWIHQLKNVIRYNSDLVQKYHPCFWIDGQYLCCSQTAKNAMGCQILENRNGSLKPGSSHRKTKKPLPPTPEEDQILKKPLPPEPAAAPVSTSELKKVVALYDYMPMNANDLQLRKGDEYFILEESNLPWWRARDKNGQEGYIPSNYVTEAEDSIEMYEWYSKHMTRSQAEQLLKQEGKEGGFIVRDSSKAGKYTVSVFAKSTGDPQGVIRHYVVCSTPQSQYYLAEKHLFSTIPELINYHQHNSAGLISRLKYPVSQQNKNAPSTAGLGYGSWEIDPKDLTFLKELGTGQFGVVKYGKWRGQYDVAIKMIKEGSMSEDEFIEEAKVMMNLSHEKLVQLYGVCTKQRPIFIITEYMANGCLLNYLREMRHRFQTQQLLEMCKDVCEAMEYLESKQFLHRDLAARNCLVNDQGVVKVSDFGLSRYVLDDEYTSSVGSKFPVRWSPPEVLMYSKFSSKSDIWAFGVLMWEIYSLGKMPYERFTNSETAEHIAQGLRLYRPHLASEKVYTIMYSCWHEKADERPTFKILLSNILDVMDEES
pIC50: −log10 of the molar value.
experimental-endpoint: pIC50

[
  {
    "smiles-str": "CN(C)C/C=C/C(=O)Nc1cc2cc(c1)Nc1nccc(n1)-c1cccc(c1)COC/C=C/CN(C)C2",
    "experimental-endpoint": "pIC50",
    "result-value": 5.90
  },
  {
    "smiles-str": "Nc1cc2cc(c1)Nc1nccc(n1)-c1cccc(c1)COC/C=C/COC2",
    "experimental-endpoint": "pIC50",
    "result-value": 6.80
  }
]

====

- measurement-target: Ab1 (h) (Homo sapiens, UniProt P00519)
- Construct: purchased Eurofins
- Sequence (P00519 whole entry): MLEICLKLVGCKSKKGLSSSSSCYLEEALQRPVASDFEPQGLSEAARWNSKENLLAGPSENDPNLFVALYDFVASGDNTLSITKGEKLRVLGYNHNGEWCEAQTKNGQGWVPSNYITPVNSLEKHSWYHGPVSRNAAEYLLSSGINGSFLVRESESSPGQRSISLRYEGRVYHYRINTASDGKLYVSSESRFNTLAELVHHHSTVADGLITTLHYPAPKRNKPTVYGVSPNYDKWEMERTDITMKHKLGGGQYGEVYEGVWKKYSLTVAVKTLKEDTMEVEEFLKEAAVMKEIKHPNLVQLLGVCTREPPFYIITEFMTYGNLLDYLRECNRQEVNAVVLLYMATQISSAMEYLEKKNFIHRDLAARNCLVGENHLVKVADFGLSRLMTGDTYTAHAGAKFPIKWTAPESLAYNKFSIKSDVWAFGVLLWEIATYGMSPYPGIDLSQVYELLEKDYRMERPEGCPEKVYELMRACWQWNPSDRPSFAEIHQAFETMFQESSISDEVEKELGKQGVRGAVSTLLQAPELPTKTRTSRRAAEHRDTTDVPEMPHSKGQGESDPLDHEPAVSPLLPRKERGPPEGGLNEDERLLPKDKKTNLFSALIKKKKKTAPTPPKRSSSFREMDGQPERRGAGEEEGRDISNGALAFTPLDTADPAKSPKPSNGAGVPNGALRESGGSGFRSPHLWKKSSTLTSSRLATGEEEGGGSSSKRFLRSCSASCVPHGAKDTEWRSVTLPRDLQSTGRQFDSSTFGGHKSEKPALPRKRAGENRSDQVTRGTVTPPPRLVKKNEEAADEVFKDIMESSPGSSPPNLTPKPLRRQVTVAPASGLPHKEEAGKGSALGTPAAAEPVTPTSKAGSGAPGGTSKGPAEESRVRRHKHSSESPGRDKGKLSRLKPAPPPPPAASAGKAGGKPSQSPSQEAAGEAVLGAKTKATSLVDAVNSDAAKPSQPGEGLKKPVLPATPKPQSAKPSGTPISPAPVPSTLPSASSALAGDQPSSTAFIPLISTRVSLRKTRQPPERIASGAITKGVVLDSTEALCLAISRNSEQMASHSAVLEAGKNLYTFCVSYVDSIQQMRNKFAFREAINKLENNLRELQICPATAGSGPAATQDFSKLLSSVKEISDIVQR
- experimental-protocol: Radioisotope labeling kinase assay (Eurofins), Ab1
- Type: biochemical
- assay-context: 1 μM compound; read-out: Inhibitory activity per unit concentration/Activity % Ab1 (h)
Reported activity at 1 µM by item:

[
  {
    "compound": "O=C(/C=C/CNC1CCOC1)Nc1cc2cc(c1)Nc1nccc(n1)-c1cccc(c1)COC/C=C/COC2 (centres unmarked)",
    "activity at 1 µM / %": 7
  },
  {
    "compound": "C=CC(=O)Nc1cc2cc(c1)Nc1nccc(n1)-c1cccc(c1)COC/C=C/COC2",
    "activity at 1 µM / %": 17
  },
  {
    "compound": "C1=C/COCc2ccc(OC/C=C/CN3CCCC3)c(c2)Nc2nccc(n2)-c2cccc(c2)COC/1",
    "activity at 1 µM / %": 85
  },
  {
    "compound": "O=C(/C=C/c1cnc[nH]1)Nc1cc2cc(c1)Nc1nccc(n1)-c1cccc(c1)COC/C=C/COC2",
    "activity at 1 µM / %": 17
  },
  {
    "compound": "CN1CCC(NC(=O)/C=C/COc2ccc3cc2Nc2nccc(n2)-c2cccc(c2)COC/C=C/COC3)C1 (centres unmarked)",
    "activity at 1 µM / %": 81
  },
  {
    "compound": "CN1C/C=C/COCc2cccc(c2)-c2ccnc(n2)Nc2cc(cc(NC(=O)C#CCN3CCOCC3)c2)C1",
    "activity at 1 µM / %": 45
  },
  {
    "compound": "CN1C/C=C/COCc2cccc(c2)-c2ccnc(n2)Nc2cc(cc(NC(=O)/C=C/c3cnc[nH]3)c2)C1",
    "activity at 1 µM / %": 50
  },
  {
    "compound": "O=C(/C=C/C(=O)N1CCCC1)Nc1cc2cc(c1)Nc1nccc(n1)-c1cccc(c1)COC/C=C/COC2",
    "activity at 1 µM / %": 38
  },
  {
    "compound": "CCCC#CC(=O)Nc1cc2cc(c1)Nc1nccc(n1)-c1cccc(c1)COC/C=C/COC2",
    "activity at 1 µM / %": 13
  },
  {
    "compound": "CN1C/C=C/COCc2cccc(c2)-c2ccnc(n2)Nc2cc(cc(NC(=O)/C=C/C(F)(F)F)c2)C1",
    "activity at 1 µM / %": 60
  },
  {
    "compound": "O=C(C#CCN1CCOCC1)Nc1cc2cc(c1)Nc1nccc(n1)-c1cccc(c1)COC/C=C/COC2",
    "activity at 1 µM / %": 8
  },
  {
    "compound": "O=C(/C=C/CN1CCC(O)C1)Nc1cc2cc(c1)Nc1nccc(n1)-c1cccc(c1)COC/C=C/COC2 (centres unmarked)",
    "activity at 1 µM / %": 2
  },
  {
    "compound": "CN(C)C/C=C/C(=O)Nc1cc2cc(c1)Nc1nccc(n1)-c1cccc(c1)COC/C=C/CN(C)C2",
    "activity at 1 µM / %": 32
  },
  {
    "compound": "CN1C/C=C/COCc2cccc(c2)-c2ccnc(n2)Nc2cc(cc(NC(=O)/C=C/CN3CCCC3)c2)C1",
    "activity at 1 µM / %": 35
  },
  {
    "compound": "O=C(/C=C/C(=O)N1CCNCC1)Nc1cc2cc(c1)Nc1nccc(n1)-c1cccc(c1)COC/C=C/COC2",
    "activity at 1 µM / %": -1
  },
  {
    "compound": "C=CC(=O)Nc1cc2cc(c1)Nc1nccc(n1)-c1cccc(c1)COC/C=C/CN(C)C2",
    "activity at 1 µM / %": 50
  },
  {
    "compound": "CN(C)C/C=C/C(=O)Nc1cc2cc(c1)Nc1nccc(n1)-c1cccc(c1)COC/C=C/COC2",
    "activity at 1 µM / %": 4
  },
  {
    "compound": "O=C(/C=C/COc1ccc2cc1Nc1nccc(n1)-c1cccc(c1)COC/C=C/COC2)N1CCOCC1",
    "activity at 1 µM / %": 81
  },
  {
    "compound": "Nc1cc2cc(c1)Nc1nccc(n1)-c1cccc(c1)COC/C=C/COC2",
    "activity at 1 µM / %": 11
  },
  {
    "compound": "O=C(/C=C/CN1CCOCC1)Nc1cc2cc(c1)Nc1nccc(n1)-c1cccc(c1)COC/C=C/COC2",
    "activity at 1 µM / %": 8
  },
  {
    "compound": "O=C(/C=C/C(=O)N1CCOCC1)Nc1cc2cc(c1)Nc1nccc(n1)-c1cccc(c1)COC/C=C/COC2",
    "activity at 1 µM / %": 9
  },
  {
    "compound": "O=C(/C=C/CNC1CCOC1)Nc1cc2cc(c1)Nc1nccc(n1)-c1cccc(c1)CCC/C=C/COC2 (centres unmarked)",
    "activity at 1 µM / %": 2
  },
  {
    "compound": "CN1C/C=C/COCc2cccc(c2)-c2ccnc(n2)Nc2cc(N)cc(c2)C1",
    "activity at 1 µM / %": 57
  },
  {
    "compound": "C1=C/COCc2ccc(OC/C=C/CN3CCOCC3)c(c2)Nc2nccc(n2)-c2cccc(c2)COC/1",
    "activity at 1 µM / %": 85
  },
  {
    "compound": "CN1C/C=C/COCc2cccc(c2)-c2ccnc(n2)Nc2cc(cc(NC(=O)/C=C/CN3CCOCC3)c2)C1",
    "activity at 1 µM / %": 55
  },
  {
    "compound": "CCCC#CC(=O)Nc1cc2cc(c1)Nc1nccc(n1)-c1cccc(c1)COC/C=C/CN(C)C2",
    "activity at 1 µM / %": 52
  },
  {
    "compound": "C/C=C/C(=O)Nc1cc2cc(c1)Nc1nccc(n1)-c1cccc(c1)COC/C=C/CN(C)C2",
    "activity at 1 µM / %": 37
  },
  {
    "compound": "C#CC(=O)Nc1cc2cc(c1)Nc1nccc(n1)-c1cccc(c1)COC/C=C/COC2",
    "activity at 1 µM / %": 1
  },
  {
    "compound": "O=C(/C=C/CN1CCCC1)Nc1cc2cc(c1)Nc1nccc(n1)-c1cccc(c1)COC/C=C/COC2",
    "activity at 1 µM / %": -1
  },
  {
    "compound": "CN1C/C=C/COCc2cccc(c2)-c2ccnc(n2)Nc2cc(cc(NC(=O)/C=C/c3ccc(C#N)cc3)c2)C1",
    "activity at 1 µM / %": 45
  },
  {
    "compound": "O=C(/C=C/C(F)(F)F)Nc1cc2cc(c1)Nc1nccc(n1)-c1cccc(c1)COC/C=C/COC2",
    "activity at 1 µM / %": 57
  },
  {
    "compound": "O=C(/C=C/COc1cc2cc(c1)Nc1nccc(n1)-c1cccc(c1)COC/C=C/COC2)N1CCOCC1",
    "activity at 1 µM / %": 46
  }
]
